# measured-target: Full-length glucokinase (beta cell isoform) (Homo sapiens)
# Construct: Full-length glucokinase (beta cell isoform) was His-tagged at N-terminus; His tag (N); made in house
# method: Glucokinase biochemical assay (PK/LDH-coupled, NADH depletion at 340 nm): % activation, EC50, % max activation
# condition-summary: 10 uM compound; 5 mM glucose; % Activation=(Va/Vo−1)×100; read-out: % Activation at 10 uM
Recorded measurements of activation at 10 µM, one per entry
# value in %; strip the unit string

Cc1ccc(NC(=O)c2cc(Oc3ccc(S(=O)(=O)N4CCC4)cc3)c3c(c2)OC(C)(C)C3)nc1
156
COc1ccc(CC(C)Oc2cc(C(=O)Nc3ccn(C)n3)cc3c2CC(C)(C)O3)cc1 (centres unmarked)
148
CN(C)C(=O)c1cc2c(Oc3ccc(S(C)(=O)=O)cc3)cc(C(=O)Nc3cnn(C)n3)cc2o1
161
CN(C)Cc1ccc(Oc2cc(C(=O)Nc3ccn(C)n3)cc3c2CC(C)(C)O3)c(F)c1
105
Cc1nccnc1C(C)Oc1cc(C(=O)Nc2ccn(C)n2)cc2c1CC(C)(C)O2 (centres unmarked)
78.3
CC(C)Oc1cc(C(=O)Nc2ccn(C)n2)cc2c1CC(CO)O2 (centres unmarked)
16.7
CN(C)C(=O)c1ccc(Oc2cc(C(=O)Nc3ccn(C)n3)cc3ccoc23)cc1
35

Kindly review the next compound as well.
Query: // activation at 10 µM lookup, key: Cc1ccc(NC(=O)c2cc(Oc3ccc(C(=O)N(C)C)c(F)c3)c3cc(C)sc3c2)nc1
Response: 4.2

---

# measured-target: Full-length glucokinase (beta cell isoform) (Homo sapiens)
# Construct: Full-length glucokinase (beta cell isoform) was His-tagged at N-terminus; His tag (N); made in house
# method: Glucokinase biochemical assay (PK/LDH-coupled, NADH depletion at 340 nm): % activation, EC50, % max activation
# condition-summary: 5 mM glucose; GK activation; read-out: EC50
quantity: pEC50
As a rule, pEC50 stands for the negative log10 of the concentration, concentration in M.

Cn1ccc(NC(=O)c2cc(Oc3ccc(C(=O)N4CCCC4)c(F)c3)c3c(c2)OC(C)(C)C3)n1
7.29

Query: // pEC50 lookup, key: Cn1ncc(NC(=O)c2cc(Oc3ccc(S(=O)(=O)C4CC4)cc3)c3c(c2)OC(C)(C)C3)n1
Response: 6.68

Query: # repeat for CCS(=O)(=O)c1ccc(Oc2cc(C(=O)Nc3ccn(C)n3)cc3c2CC(C)(C)O3)cc1
Response: 7.18

Query: # repeat for CN(C)C(=O)c1ccc(Oc2cc(C(=O)Nc3cc[nH]n3)cc3c2CC(C)(C)O3)cc1
Response: 6.07

Query: # repeat for Cn1ccc(NC(=O)c2cc(Oc3ccc(S(=O)(=O)C4CC4)cc3)c3c(c2)OC(C)(CO)C3)n1 (stereo not drawn)
Response: 6.89

Query: # repeat for Cn1ccc(NC(=O)c2cc(Oc3ccc(S(=O)(=O)C4CC4)c(F)c3)c3c(c2)OC(C)(C)C3)n1
Response: 6.96

Query: # repeat for CO[C@@H]1CCN(C(=O)c2ccc(Oc3cc(C(=O)Nc4ccn(C)n4)cc4c3CC(C)(C)O4)cc2F)C1
Response: 6.60

---

# measured-target: Full-length glucokinase (beta cell isoform) (Homo sapiens, UniProt P35557)
# Construct: Full-length glucokinase (beta cell isoform) was His-tagged at N-terminus; His tag (N); made in house
# Sequence (P35557 1-465): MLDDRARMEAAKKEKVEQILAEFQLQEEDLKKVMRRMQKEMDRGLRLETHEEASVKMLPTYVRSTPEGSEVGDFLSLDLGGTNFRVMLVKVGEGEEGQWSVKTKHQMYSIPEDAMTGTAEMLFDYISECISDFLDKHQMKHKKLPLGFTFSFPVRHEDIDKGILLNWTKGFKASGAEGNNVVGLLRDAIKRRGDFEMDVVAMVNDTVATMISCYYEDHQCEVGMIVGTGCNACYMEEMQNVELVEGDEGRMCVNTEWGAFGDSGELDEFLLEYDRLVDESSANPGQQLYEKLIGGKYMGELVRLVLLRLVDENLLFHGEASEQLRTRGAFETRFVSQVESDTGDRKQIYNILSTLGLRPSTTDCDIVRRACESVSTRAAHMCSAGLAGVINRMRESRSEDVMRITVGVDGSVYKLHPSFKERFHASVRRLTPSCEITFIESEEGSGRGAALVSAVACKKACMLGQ
# method: Glucokinase biochemical assay (PK/LDH-coupled, NADH depletion at 340 nm): % activation, EC50, % max activation
# condition-summary: 10 uM compound; 5 mM glucose; % Activation=(Va/Vo−1)×100; read-out: % Activation at 10 uM
Quick rule: activation at 10 µM of at least 80% means t, below that means f.

Study these solved cases before continuing.
Cn1ccc(NC(=O)c2cc(Oc3ccc(C(=O)N4CCC4)cc3)c3c(c2F)OC(C)(C)C3)n1 [Example 191]
t
Cc1cc2c(Oc3ccc(S(C)(=O)=O)cc3)cc(C(=O)Nc3cnc(N(C)C)cn3)cc2o1 [Example 262]
t
Cn1ccc(NC(=O)c2cc(Oc3ccc(S(C)(=O)=O)cc3)c3occc3c2)n1 [Example 332]
f
Cn1ccc(NC(=O)c2cc(Oc3ccc(S(C)(=O)=O)cc3)c3sccc3c2)n1 [Example 364]
f
CN(C)S(=O)(=O)c1ccc(Oc2cc(C(=O)Nc3cnn(C)n3)cc3c2CC(C)(C)O3)cc1F [Example 132]
t
Cc1ccc(NC(=O)c2cc(Oc3ccc(S(C)(=O)=O)cc3)cc3c2CCO3)nc1 [Example 6]
t
Cc1ccc(NC(=O)c2cc(Oc3ccc(C(=O)N(C)C)c(F)c3)c3sccc3c2)nc1 [Example 365]
f
COCc1cc2c(Oc3ccc(S(C)(=O)=O)cc3)cc(C(=O)Nc3cc(C)on3)cc2o1 [Example 315]
f
Cc1cc2c(Oc3ccc(S(=O)(=O)N4CCC4)cc3)cc(C(=O)Nc3ccc(CO)cn3)cc2o1 [Example 301]
t
Cn1ccc(NC(=O)c2cc(Oc3ccc(-c4ncon4)cc3)c3c(c2)OC(C)(C)C3)n1 [Example 187]
t

Query: Hi, just wondering whether COCc1cc2c(Oc3ccc(S(C)(=O)=O)cc3)cc(C(=O)Nc3ccn(C)n3)cc2o1 [Example 310] shows activation at 10 µM of 80% or higher.
Response: t

Query: # repeat for Cc1ccc(NC(=O)c2cc(Oc3ccc(C(=O)N(C)C)cc3)c3c(C)csc3c2)nc1 [Example 353]
Response: f

Query: # repeat for Cn1ccc(NC(=O)c2cc(Oc3ccc(C(=O)Nc4ccn(C)n4)c(F)c3)c3c(c2)OC(C)(C)C3)n1 [Example 65]
Response: t

Query: # repeat for Cc1csc2cc(C(=O)Nc3ccn(C)n3)cc(Oc3ccc(S(C)(=O)=O)cc3)c12 [Example 351]
Response: f

Query: # repeat for Cn1ccc(NC(=O)c2cc(Oc3cc(F)ccc3C(=O)N3CCC3)c3c(c2)OC(C)(C)C3)n1 [Example 34]
Response: f

Query: # repeat for Cn1ccc(NC(=O)c2cc(Oc3ccc(S(C)(=O)=O)cc3)c3c(c2)OC(CF)C3)n1 (stereo not drawn) [Example 224]
Response: t

---

# measured-target: Full-length glucokinase (beta cell isoform) (Homo sapiens, UniProt P35557)
# Construct: Full-length glucokinase (beta cell isoform) was His-tagged at N-terminus; His tag (N); made in house
# method: Glucokinase biochemical assay (PK/LDH-coupled, NADH depletion at 340 nm): % activation, EC50, % max activation
# condition-summary: 10 uM compound; 5 mM glucose; % Activation=(Va/Vo−1)×100; read-out: % Activation at 10 uM
quantity: activation at 10 µM (%)
# value in %; strip the unit string

Previously resolved entries follow.
CCNC(=O)c1ccc(Oc2cc(C(=O)Nc3cnn(C)n3)cc3c2CC(C)(C)O3)cn1
238
CN(C)C1CN(C(=O)c2ccc(Oc3cc(C(=O)Nc4ccn(C)n4)cc4c3CC(C)(C)O4)cc2F)C1
131

Query: // activation at 10 µM lookup, key: Cn1ccc(NC(=O)c2cc(Oc3ccc(C(=O)N4CCC4)nc3)c3c(c2)OC(C)(C)C3)n1
Response: 148

Query: # repeat for Cc1ccc(NC(=O)c2cc(Oc3ccc(C(=O)N(C)C)nc3)c3c(c2)OC(C)(C)C3)nc1
Response: 76.8

Query: # repeat for Cc1cc2c(Oc3ccc(S(C)(=O)=O)cn3)cc(C(=O)Nc3ccn(C)n3)cc2o1
Response: 132

Query: # repeat for Cc1cc2c(Oc3ccc(S(=O)(=O)N4CCC4)cc3)cc(C(=O)Nc3ccccn3)cc2o1
Response: 70

Query: # repeat for Cn1ccc(NC(=O)c2cc(OCc3nc(-c4ccccn4)no3)c3c(c2)OC(C)(C)C3)n1
Response: 154

---

# measured-target: Full-length glucokinase (beta cell isoform) (Homo sapiens)
# Construct: Full-length glucokinase (beta cell isoform) was His-tagged at N-terminus; His tag (N); made in house
# method: Glucokinase biochemical assay (PK/LDH-coupled, NADH depletion at 340 nm): % activation, EC50, % max activation
# condition-summary: 10 uM compound; 5 mM glucose; % Activation=(Va/Vo−1)×100; read-out: % Activation at 10 uM
quantity: activation at 10 µM (%)
# value in %; strip the unit string

Query: // activation at 10 µM lookup, key: COc1ccnc(NC(=O)c2cc(Oc3ccc(S(=O)(=O)N(C)C)c(F)c3)c3cc(C)oc3c2)c1
Response: 46.9

Query: # repeat for Cn1ccc(NC(=O)c2cc(OCc3ccccc3)c3c(c2)OC(C)(C)C3)n1
Response: 111

Query: # repeat for Cn1ncc(NC(=O)c2cc(Oc3ccc(C#N)c(F)c3)c3c(c2)OC(C)(C)C3)n1
Response: 250

Query: # repeat for C[C@@H](CO)COc1cc(C(=O)Nc2ccn(C)n2)cc2c1CC(C)(C)O2
Response: 92.6

The reported numbers originate from patent US8119624B2.
